- Experiment Summary: NCI Yeast Anticancer Drug Screen. Data for the rad50 strain (AID 155);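 also: 0% = growth of vehicle-only cultures of the same strain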
- Assay Conditions: S. cerevisiae rad50 strain growth inhibition; at 5.0 µM (retest, dose inferred, filed as 0.5)
About 79,000 compounds went through this panel and 15% of them were active in at least one assay; those are over-represented in the sample as a whole. Calls of active or inactive are those of the source. Rule as the data show it: active = growth inhibition above about 70%; inactive = the rest.
Classes used: 1 for active, 0 for inactive

CCCCCCCCCCCC[S+](C)CC(=O)[O-] (stereo unspecified); 0
Cc1nc(Sc2nc3ccc([N+](=O)[O-])cc3s2)sc1C; 0
CCCOC1N(c2ccc(C)cc2)NC(=O)C1(C)C (stereo unspecified); 1
NC(=S)N/N=C/c1ncccc1O; 0
COc1cc(N(CCC#N)CCC#N)ccc1/C(N=Nc1ccc([N+](=O)[O-])cc1)=N/NC(=O)c1cc(Br)ccc1O; 0
COC(=O)c1ccc(=O)c2nc3/c(=C/O)c(O)cc(=O)c3[nH]c12; 1
CC(C)(C)S(=O)(=O)O.[Ag]; 1
CCCCCCCCCCCCCCCCCC[S+](C)CC (stereo unspecified); 1
c1ccc(-c2nc(N=C3N=c4ccccc4=N3)[nH]c2-c2ccccn2)nc1; 0
O=C(O)c1cc2c(s1)C(=O)c1sccc1C2=O; 0
C[C@@H]1CCC([C@@H](C)[C@H]2CC[C@H]3[C@@H]4CC[C@H]5C[C@@H](O)CC[C@]5(C)[C@H]4CC[C@]23C)=NC1; 1
COc1ccc2c(c1OC)OCC(CN(C)C)C2=O (stereo unspecified); 0
CCc1cnc2ccccc2c1/C=C/c1ccc(N(C)C)cc1; 0
CC1=C(C2=C(C)C(=O)C(=O)c3cc(C)ccc32)c2ccc(C)cc2C(=O)C1=O; 1
CN(C)c1ccc(/C=C/c2ccnc3ccccc23)cc1; 0
S=C=Nc1ccc(N2CCOCC2)cc1; 1
